Below: a set of entries, each annotated with reported n (binding stoichiometry of monomeric 14-3-3 and Cby peptide).
Biological target: 14-3-3ζ (Homo sapiens, UniProt P63104)
Construct: Both full-length 14-3-3ζ and 14-3-3ζΔC12 were expressed as N-terminally His-tagged protein; His tag (TEV-cleavable) (N, cleaved yes); made in house; host or cells: Escherichia coli BL21 (DE3) pLysS
Sequence (P63104 whole entry): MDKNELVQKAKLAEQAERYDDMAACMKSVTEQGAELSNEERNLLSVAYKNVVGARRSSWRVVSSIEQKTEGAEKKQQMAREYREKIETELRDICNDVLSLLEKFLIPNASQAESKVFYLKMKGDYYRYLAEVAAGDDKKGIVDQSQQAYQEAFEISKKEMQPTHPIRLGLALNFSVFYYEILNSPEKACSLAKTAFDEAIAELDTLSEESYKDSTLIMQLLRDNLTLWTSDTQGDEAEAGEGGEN
Assay: ITC of Cby peptides titrated into 14-3-3ζ
Type: binding
Conditions: 25°C, 50 mM sodium phosphate, 100 mM NaCl, 1 mM DTT, pH 6.8, one-site model, Table 1 set of duplicate experiments
Square brackets hold non-standard residues; d marks the D form. Peptide text beside a SMILES is read from it. pS = N[C@@H](COP(=O)(O)O)C(=O)O
The response must contain the number and no unit.

Some entries whose results are on file:
compound: CC(C)C[C@H](NC(=O)[C@H](CC(N)=O)NC(=O)[C@H](CO)NC(=O)[C@H](CC(C)C)NC(=O)[C@H](COP(=O)(O)O)NC(=O)[C@H](C)NC(=O)[C@H](CO)NC(=O)[C@H](CCCCN)NC(=O)[C@H](CCCNC(=N)N)NC(=O)[C@@H]1CCCN1C(=O)[C@@H]1CCCN1C(=O)[C@@H](NC(=O)[C@@H](N)CCCCN)[C@@H](C)O)C(=O)O [Cby 13-mer] (H-KTPPRKSA[pS]LSNL-OH)
study_target: 14-3-3ζ (Homo sapiens, UniProt P63104)
observed_measurement: 1.00
--
compound: CC(C)C[C@H](NC(=O)[C@H](COP(=O)(O)O)NC(=O)[C@H](C)NC(=O)[C@H](CO)NC(=O)[C@H](CCCCN)NC(=O)[C@H](CCCNC(=N)N)NC(=O)[C@@H]1CCCN1C(=O)[C@@H]1CCCN1C(=O)[C@@H](NC(=O)[C@@H](N)CCCCN)[C@@H](C)O)C(=O)N[C@@H](CO)C(N)=O [Cby 11-mer] (H-KTPPRKSA[pS]LS-NH2)
study_target: 14-3-3ζ (Homo sapiens, UniProt P63104)
observed_measurement: 0.95

Would you kindly look at the next entry?
Q: What value of measured n (binding stoichiometry of monomeric 14-3-3 and Cby peptide) is listed for CC(C)C[C@H](NC(=O)[C@H](CC(N)=O)NC(=O)[C@@H]1CCCN1C(=O)[C@H](CC(C)C)NC(=O)[C@H](COP(=O)(O)O)NC(=O)[C@H](C)NC(=O)[C@H](CO)NC(=O)[C@H](CCCCN)NC(=O)[C@H](CCCNC(=N)N)NC(=O)[C@@H]1CCCN1C(=O)[C@@H]1CCCN1C(=O)[C@@H](NC(=O)[C@@H](N)CCCCN)[C@@H](C)O)C(=O)O [Cby 13-mer S22P] (H-KTPPRKSA[pS]LPNL-OH) ?
Ans: 1.06

====

Target: 14-3-3ζ (Homo sapiens, UniProt P63104)
Construct: Both full-length 14-3-3ζ and 14-3-3ζΔC12 were expressed as N-terminally His-tagged protein; His tag (TEV-cleavable) (N, cleaved yes); made in house; host or cells: Escherichia coli BL21 (DE3) pLysS
Experiment: ITC of Cby peptides titrated into 14-3-3ζ
Format: binding
Conditions: 298.15 K, pH 6.8, Table 1 set of duplicate experiments
Square brackets hold non-standard residues; d marks the D form. Peptide text beside a SMILES is read from it. pS = N[C@@H](COP(=O)(O)O)C(=O)O
recorded_metric: ΔH (kcal/mol)

# annotated cases, reported ΔH shown
molecule: CC(C)C[C@H](NC(=O)[C@H](COP(=O)(O)O)NC(=O)[C@H](C)NC(=O)[C@H](CO)NC(=O)[C@H](CCCCN)NC(=O)[C@H](CCCNC(=N)N)NC(=O)[C@@H]1CCCN1C(=O)[C@@H]1CCCN1C(=O)[C@@H](NC(=O)[C@@H](N)CCCCN)[C@@H](C)O)C(=O)N[C@@H](CO)C(N)=O [Cby 11-mer] (H-KTPPRKSA[pS]LS-NH2)
ΔH (kcal/mol): -3.26
//
molecule: CC(C)C[C@H](NC(=O)[C@H](CC(N)=O)NC(=O)[C@@H]1CCCN1C(=O)[C@H](CC(C)C)NC(=O)[C@H](COP(=O)(O)O)NC(=O)[C@H](C)NC(=O)[C@H](CO)NC(=O)[C@H](CCCCN)NC(=O)[C@H](CCCNC(=N)N)NC(=O)[C@@H]1CCCN1C(=O)[C@@H]1CCCN1C(=O)[C@@H](NC(=O)[C@@H](N)CCCCN)[C@@H](C)O)C(=O)O [Cby 13-mer S22P] (H-KTPPRKSA[pS]LPNL-OH)
ΔH (kcal/mol): -4.64
//
molecule: CC(C)C[C@H](NC(=O)[C@H](CO)NC(=O)[C@H](Cc1c[nH]cn1)NC(=O)[C@H](CC(C)C)NC(=O)[C@H](CC(N)=O)NC(=O)[C@@H]1CCCN1C(=O)[C@H](CC(C)C)NC(=O)[C@H](COP(=O)(O)O)NC(=O)[C@H](C)NC(=O)[C@H](CO)NC(=O)[C@H](CCCCN)NC(=O)[C@H](CCCNC(=N)N)NC(=O)[C@@H]1CCCN1C(=O)[C@@H]1CCCN1C(=O)[C@@H](NC(=O)[C@@H](N)CCCCN)[C@@H](C)O)C(=O)N[C@@H](CC(=O)O)C(=O)N[C@@H](CCCNC(=N)N)C(=O)O [Cby 18-mer S22P] (H-KTPPRKSA[pS]LPNLHSLDR-OH)
ΔH (kcal/mol): -8.03

(1) CC(=O)N[C@@H](CCCNC(=N)N)C(=O)N[C@@H](CCCCN)C(=O)N[C@@H](CO)C(=O)N[C@@H](C)C(=O)N[C@@H](COP(=O)(O)O)C(=O)N[C@@H](CC(C)C)C(=O)N1CCC[C@H]1C(N)=O [Cby 7-mer S22P] (Ac-RKSA[pS]LP-NH2)
(2) CC(=O)N[C@@H](CCCNC(=N)N)C(=O)N[C@@H](CCCCN)C(=O)N[C@@H](CO)C(=O)N[C@@H](C)C(=O)N[C@@H](COP(=O)(O)O)C(=O)N[C@@H](CC(C)C)C(=O)N[C@@H](CO)C(N)=O [Cby 7-mer] (Ac-RKSA[pS]LS-NH2)
Q: Higher ΔH between 1 and 2 ? Please respond with the label that marks your chosen entry.
Ans: 2
(2: -3.35 kcal/mol, 1: -6.16 kcal/mol)
